- test_summary: modulators of HCV replicon luciferase signal, primary screen, HCV replication inhibitor project, Huh7 cells, luciferase reporter (AID 1109);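 note: huh7 hepatoma cells harbouring a luciferase neomycin HCV replicon reporter; luciferase luminescence as measure of HCV replicon replication; test concentration not given here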
- recorded_conditions: 48 h, higher = more signal
Tick YES if z-score is -1 or greater. Tick NO if z-score is less than -1.

compound	assigned_category
C=CCNC(=O)[C@@H]1[C@H]2C(=O)O[C@H](c3ccccc3)[C@H](c3ccccc3)N2[C@H](c2ccc(O)cc2)[C@@]12C(=O)Nc1ccc(C#CC3=CCCCC3)cc12	NO
CCCCC(=C=CC[C@@H](O)c1ccc(OCCO)cc1)CCO	YES
CCOC(=O)C1=CCC(c2cccn2C(=O)OC(C)(C)C)N(S(=O)(=O)c2ccc(C)cc2)C1 (stereo unspecified)	NO
COC(=O)[C@@]1(Cc2ccccc2)[C@H]2c3cc(C(=O)N(C)C)n(Cc4ccc(Cl)c(C(F)(F)F)c4)c3C[C@H]2CN1C(=O)c1ccccc1	NO
C=CCNC(=O)[C@H]1[C@@H]2C(=O)O[C@@H](c3ccccc3)[C@@H](c3ccccc3)N2[C@@H](c2ccc(O)cc2)[C@]12C(=O)N(C(=O)OCCOC)c1ccc(C#Cc3ccc(OC)cc3)cc12	NO
C=CCNC(=O)[C@H]1[C@@H]2C(=O)O[C@@H](c3ccccc3)[C@@H](c3ccccc3)N2[C@@H](c2ccc(O)cc2)[C@]12C(=O)Nc1ccc(C#CCC(C(=O)OC)C(=O)OC)cc12	YES

---

- test_summary: PSAC antagonists in infected red cells, primary screen, cell-based, P. falciparum Indochina, OD700, 2 h (AID 1155);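 note: lysis reports solute entry through the parasite surface anion channel PSAC; channel blockers reduce lysis of infected cells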
- recorded_conditions: P. falciparum Indochina infected erythrocytes, osmotic lysis OD700, called active from +8 up or from −8 down
Calls of active or inactive are those of the source.
Labels: 1.0 (active), 0.0 (inactive)

compound	assigned_category
[N-]=[N+]=NCc1ccccc1C[C@]1(C(=O)N2CCCCC2)COC(c2ccc(OCCCO)cc2)=N1	1.0
C=CCOC(=O)[C@H]1[C@@H]2C(=O)O[C@@H](c3ccccc3)[C@@H](c3ccccc3)N2[C@@H](c2ccc(OCCOC(=O)[C@@H]3C[C@@H]4C(=O)N[C@@H](Cc5ccccc5)C(=O)N4[C@@H]3c3ccc(O)cc3)cc2)[C@]12C(=O)Nc1ccc(I)cc12	0.0
COC(=O)C1=CC(c2ccc(CO)cc2)=CC(C2CC2)N(Cc2cc3c(cc2Br)OCO3)C=C1C(=O)OC (stereo not drawn)	0.0
COc1ccc([Si](C)(C)[C@H]2[C@H](CC(=O)N3CCC[C@H]3CO)O[C@@]3(C(=O)N(Cc4cccc(N5CCCCC5=O)c4)c4ccccc43)[C@@H]2C)cc1	0.0
C[C@H]1C2[C@H](Cc3ccccc3)NC(=O)[C@]23C(=O)N[C@@H](Cc2ccccc2)C(=O)N2CCC[C@H]2C(=O)NC/C=C/CC/C=C/C3[C@@H]2O[C@]12C (stereo partly drawn)	0.0
O=C1O[C@H](c2ccccc2)[C@H](c2ccccc2)N2[C@H]1[C@@H](C(=O)Nc1nc3ccccc3s1)[C@]1(C(=O)Nc3ccccc31)[C@H]2c1ccccc1OCCO	0.0
O=C1C2C=CC(C(O)c3ccccn3)N(Nc3ccc([N+](=O)[O-])cc3)C2C(=O)N1c1ccccc1 (stereo not drawn)	0.0
CC(C)Cc1ccc(CN2CC[C@@H](NC(=O)c3ccccc3)C2)cc1	0.0
C=CCNC(=O)[C@H]1[C@@H]2C(=O)O[C@@H](c3ccccc3)[C@@H](c3ccccc3)N2[C@@H](c2ccc(OCCO)cc2)[C@]12C(=O)N(C(=O)OCCOC)c1ccc(C#CCNC(N)=O)cc12	0.0
Cc1ccc(S(=O)(=O)N2[C@@H](c3ccccc3)C(C(=O)O)=C[C@H]2C(C)(C)C)cc1	0.0
CN1C(=O)C2C=CC(C(O)COCc3ccccc3)N(Nc3ccc([N+](=O)[O-])cc3[N+](=O)[O-])C2C1=O (stereo not drawn)	0.0
C=CCNC(=O)[C@H]1[C@@H]2C(=O)O[C@@H](c3ccccc3)[C@@H](c3ccccc3)N2[C@@H](c2ccc(O)cc2)[C@]12C(=O)Nc1ccccc12	0.0
[N-]=[N+]=NCc1ccccc1[C@H]1OC(c2ccc(OCCCO)cc2)=N[C@@]1(CCS(=O)(=O)c1ccccc1)C(=O)O	0.0
